Target: Urokinase-type plasminogen activator (Homo sapiens, UniProt P00749)
pKi: −log10 of the molar value.
Reported metric: pKi

1) N=C(N)c1ccc(CNC(=O)[C@H](CCCCN)NC(=O)[C@@H](CO)NS(=O)(=O)Cc2ccccc2)cc1 [US8476306, 8.1]	7.62
